Recorded values, source ChEMBL document CHEMBL1156597.

Reported GI50 values are given for each entry in this list.
- Tested on: LoVo
- assay: Cytotoxicity against human doxorubicin resistant LoVo cells after 48 hrs by SRB assay
- Type: functional
Report only the number, with the unit nM understood.

Consider the worked cases shown below.
Any idea what its GI50 is? The compound is C/C=C1\NC(=O)[C@H](Cc2ccccc2)NC(=O)[C@@H](C(C)C)NC(=O)[C@@H]([C@H](C)CC)NC(=O)[C@H](NC(=O)[C@H](NC(=O)[C@H](CCCN)NC(=O)[C@H]2CCCN2C(=O)[C@H](NC(=O)[C@@H](NC(=O)[C@@H](NC(=O)[C@H](NC(=O)CCCCCCCCCCCCCCC)C(C)C)[C@@H](C)O)C(C)C)C(C)C)[C@H](C)CC)[C@H](C)OC(=O)[C@H](C(C)C)NC1=O 264

Ok, now C/C=C1\NC(=O)[C@H](Cc2ccccc2)NC(=O)[C@@H](C(C)C)NC(=O)[C@@H]([C@H](C)CC)NC(=O)[C@H](NC(=O)[C@H](NC(=O)[C@H](CCCNC(=O)CCCC[C@@H]2SC[C@@H]3NC(=O)N[C@@H]32)NC(=O)[C@H]2CCCN2C(=O)[C@H](NC(=O)[C@@H](NC(=O)[C@@H](NC(=O)[C@H](NC(=O)CCCC(C)C)C(C)C)[C@@H](C)O)C(C)C)C(C)C)[C@H](C)CC)[C@H](C)OC(=O)[C@H](C(C)C)NC1=O 328

Moving on to another compound below.
Could you tell me which GI50 is on file for C/C=C1\NC(=O)[C@H](Cc2ccccc2)NC(=O)[C@@H](C(C)C)NC(=O)[C@@H]([C@H](C)CC)NC(=O)[C@H](NC(=O)[C@H](NC(=O)[C@H](CCCNC(=O)CCC2CCCCC2)NC(=O)[C@H]2CCCN2C(=O)[C@H](NC(=O)[C@@H](NC(=O)[C@@H](NC(=O)[C@H](NC(=O)CCCC(C)C)C(C)C)[C@@H](C)O)C(C)C)C(C)C)[C@H](C)CC)[C@H](C)OC(=O)[C@H](C(C)C)NC1=O ? 93.5
